system: primary CLL samples (CD19+ and CD5+ cells); assay: High-throughput dynamic BH3 profiling (HT-DBP): drug-induced apoptotic priming (delta priming), cytochrome c release after BH3 peptide; type: cell-based, human; conditions: peptide PUMA 1 uM; feature BIRC3

| sample-smiles | direction |
| --- | --- |
| C=CC(=O)Nc1cc(Nc2nccc(-c3cn(C)c4ccccc34)n2)c(OC)cc1N(C)CCN(C)C | Sensitive |
| Cc1c2c(nn1C)CSCc1cc(n(C)n1)CSc1cc(c3ccccc3c1)OCCCc1c(C(=O)O)n(C)c3c-2c(Cl)ccc13 | Sensitive |
| CCn1c(-c2nonc2N)nc2c(C#CC(C)(C)O)ncc(OC[C@H]3CCCNC3)c21 | Sensitive |
| CCC[C@H](N[C@H]1CCc2cc(F)cc(F)c2C1)C(=O)Nc1cn(C(C)(C)CNCC(C)(C)C)cn1 | Sensitive |

FYI, the data here is from patent US20250255889A1.
